Reference for the values: patent US8138189B2

target: full length human recombinant glucocorticoid receptor (Homo sapiens, UniProt P04150); construct: partially purified full length human recombinant glucocorticoid receptor; purchased Panvera/Invitrogen PV4302; assay: Glucocorticoid Receptor Binding Assay (fluorescence polarization competitor assay, Fluormone GS Far Red tracer)
Sequence (P04150 whole entry): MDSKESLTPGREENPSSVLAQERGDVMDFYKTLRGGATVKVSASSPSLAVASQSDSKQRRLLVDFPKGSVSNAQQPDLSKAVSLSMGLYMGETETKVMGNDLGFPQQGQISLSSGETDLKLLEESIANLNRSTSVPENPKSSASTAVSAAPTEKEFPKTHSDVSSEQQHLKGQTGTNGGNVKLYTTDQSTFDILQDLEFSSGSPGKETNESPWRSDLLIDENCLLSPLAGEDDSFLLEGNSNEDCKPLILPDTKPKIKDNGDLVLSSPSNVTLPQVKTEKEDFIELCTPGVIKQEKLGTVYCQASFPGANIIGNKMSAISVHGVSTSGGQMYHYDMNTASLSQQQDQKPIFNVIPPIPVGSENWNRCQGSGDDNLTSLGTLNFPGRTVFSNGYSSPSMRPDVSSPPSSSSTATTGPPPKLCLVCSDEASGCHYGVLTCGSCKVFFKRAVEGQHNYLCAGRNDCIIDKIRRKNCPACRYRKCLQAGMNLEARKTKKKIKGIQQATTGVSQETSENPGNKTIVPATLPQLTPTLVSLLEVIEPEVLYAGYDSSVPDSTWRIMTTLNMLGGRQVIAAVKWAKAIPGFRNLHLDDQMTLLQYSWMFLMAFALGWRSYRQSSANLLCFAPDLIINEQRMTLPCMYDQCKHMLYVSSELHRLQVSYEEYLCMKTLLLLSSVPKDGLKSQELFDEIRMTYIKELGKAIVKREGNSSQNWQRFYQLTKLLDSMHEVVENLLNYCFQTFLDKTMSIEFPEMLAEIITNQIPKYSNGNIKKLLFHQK
pKi: −log10 of the molar value.

[
  {
    "compound": "C[C@H](c1ccc(-c2ccc(C(=O)O)cc2)cc1Cl)[C@@](O)(c1ccnc(Cl)c1)C(F)(F)F (relative stereo)",
    "pKi": 7.31
  },
  {
    "compound": "C[C@@H](c1ccc(OC(C)(C)C(=O)O)c(Cl)c1Cl)[C@](O)(c1ccc(=O)n(C)c1)C(F)(F)F (stereo in doubt)",
    "pKi": 7.09
  },
  {
    "compound": "COC(=O)c1cnc(Oc2ccc([C@@H](C)[C@@](O)(c3ccc(=O)n(C)c3)C(F)(F)F)c(Cl)c2Cl)cn1 (relative stereo)",
    "pKi": 7.61
  },
  {
    "compound": "CCOC(=O)COc1ccc(Oc2ccc([C@@H](C)[C@@](O)(c3ccc(=O)n(C)c3)C(F)(F)F)c(Cl)c2)cc1 (relative stereo)",
    "pKi": 8.70
  },
  {
    "compound": "Cc1cc([C@@](O)([C@@H](C)c2ccc(Oc3ccc(C(=O)O)cn3)cc2Cl)C(F)(F)F)cn(C)c1=O [Example 246]",
    "pKi": 9.30
  },
  {
    "compound": "CCOC(=O)c1cc(Oc2ccc(Cl)c([C@H](C)[C@](O)(c3ccc(=O)n(C)c3)C(F)(F)F)c2)ccc1Cl (stereo in doubt)",
    "pKi": 7.77
  },
  {
    "compound": "C[C@H](c1ccc(COc2ncc(C(=O)O)cn2)cc1Cl)[C@@](O)(c1ccnc(Cl)c1)C(F)(F)F (stereo in doubt)",
    "pKi": 7.61
  },
  {
    "compound": "CCOC(=O)c1ccc(COc2ccc([C@@H](C)[C@@](O)(c3cnc(C)cn3)C(F)(F)F)c(Cl)c2)cc1 (racemic) [Example 1]",
    "pKi": 7.12
  },
  {
    "compound": "COC(=O)c1cnc(Oc2ccc([C@H](C)[C@](O)(c3cc(Cl)c(=O)n(C)c3)C(F)(F)F)c(Cl)c2)cc1C(F)(F)F (stereo in doubt)",
    "pKi": 8.33
  },
  {
    "compound": "COc1cc(C(=O)O)ccc1COc1ccc(C(C)C(O)(c2cnn3ccccc23)C(F)(F)F)c(Cl)c1 (stereo not shown)",
    "pKi": 6.57
  },
  {
    "compound": "Cc1cc(C(O)(C(C)c2ccc(-c3cccc(CC(=O)O)c3)cc2Cl)C(F)(F)F)ccn1 (stereo not shown)",
    "pKi": 8.19
  },
  {
    "compound": "C[C@@H](c1ccc(OCc2ccc(CC(=O)O)cc2)cc1Cl)[C@](O)(c1cnc2ccccc2c1)C(F)(F)F (relative stereo)",
    "pKi": 8.72
  },
  {
    "compound": "CCOC(=O)c1cc(Oc2ccc(Cl)c([C@H](C)[C@](O)(c3ccc(=O)n(C)c3)C(F)(F)F)c2)ccc1F (stereo in doubt)",
    "pKi": 7.99
  }
]
